# PROCEDURE DETAILS: Plasma concentrations and pharmacokinetic parameters after topical ocular, subcutaneous and intravitreal administration
# Type: in vivo, New Zealand White rabbits
# CONDITION SET: New Zealand White, rabbit, plasma, sc, 5 mg/kg; subcutaneous 5 mg/kg/dose, solution
Where a name gives a salt, the structure may show the parent alone.
MEASUREMENT NAME: MRT last (min)
Give your result in min as a bare value.

Req: In one line, give reported MRT last of the entry COC(=O)N[C@@H](Cc1ccccc1)C(=O)N[C@@H](Cc1ccc(NS(=O)(=O)O)cc1)c1csc(-c2cccs2)n1 [Compound 1 sodium salt] .
Resp: 52.2

----------
# PROCEDURE DETAILS: Ocular tissue concentrations (aqueous humor, vitreous humor, iris, retina, choroid, cornea) after topical ocular, subcutaneous and intravitreal administration
# Format: in vivo, New Zealand White rabbits
# CONDITION SET: New Zealand White, rabbit, cornea homogenate, subcutaneous, 5 mg/kg/dose, Cornea homogenate, 0.5 hr, OS; free acid, subcutaneous 5 mg/kg/dose, Group 3; read-out: Cornea Conc. (ng/mL) OS
MEASUREMENT NAME: concentration at 0.5 h (ng/mL)
Give your result in ng/mL as a bare value.

Req: In one line, give reported concentration at 0.5 h of the entry COC(=O)N[C@@H](Cc1ccccc1)C(=O)N[C@@H](Cc1ccc(NS(=O)(=O)O)cc1)c1csc(-c2cccs2)n1 [Compound 1] .
Resp: 0.897

----------
# PROCEDURE DETAILS: Ocular tissue concentrations (aqueous humor, vitreous humor, iris, retina, choroid, cornea) after topical ocular, subcutaneous and intravitreal administration
# Assay type: in vivo, New Zealand White rabbits
# CONDITION SET: New Zealand White, rabbit, choroid, subcutaneous, 5 mg/kg/dose, TABLE 16: Choroid, 0.5 hr, OS; free acid, subcutaneous 5 mg/kg/dose, Group 3; read-out: Choroid Conc. (ng/g) OS
MEASUREMENT NAME: concentration at 0.5 h (ng/g)
Give your result in ng/g as a bare value.

Req: In one line, give reported concentration at 0.5 h of the entry COC(=O)N[C@@H](Cc1ccccc1)C(=O)N[C@@H](Cc1ccc(NS(=O)(=O)O)cc1)c1csc(-c2cccs2)n1 .
Resp: 83.1

----------
# PROCEDURE DETAILS: Ocular tissue concentrations (aqueous humor, vitreous humor, iris, retina, choroid, cornea) after topical ocular, subcutaneous and intravitreal administration
# Type: in vivo, New Zealand White rabbits
# CONDITION SET: New Zealand White, rabbit, choroid homogenate, subcutaneous, 5 mg/kg/dose, TABLE 16: Choroid homogenate, 1 hr, OD; free acid, subcutaneous 5 mg/kg/dose, Group 3; read-out: Choroid Conc. (ng/mL) OD
MEASUREMENT NAME: concentration at 1 h (ng/mL)
Give your result in ng/mL as a bare value.

Req: In one line, give reported concentration at 1 h of the entry COC(=O)N[C@@H](Cc1ccccc1)C(=O)N[C@@H](Cc1ccc(NS(=O)(=O)O)cc1)c1csc(-c2cccs2)n1 [Compound 1] .
Resp: 6.04

----------
# PROCEDURE DETAILS: Ocular tissue concentrations (aqueous humor, vitreous humor, iris, retina, choroid, cornea) after topical ocular, subcutaneous and intravitreal administration
# Type: in vivo, New Zealand White rabbits
# CONDITION SET: New Zealand White, rabbit, iris homogenate, subcutaneous, 5 mg/kg/dose, TABLE 16: Iris homogenate, 4 hr, OD; free acid, subcutaneous 5 mg/kg/dose, Group 3; read-out: Iris Conc. (ng/mL) OD
MEASUREMENT NAME: concentration at 4 h (ng/mL)
Give your result in ng/mL as a bare value.

Req: In one line, give reported concentration at 4 h of the entry COC(=O)N[C@@H](Cc1ccccc1)C(=O)N[C@@H](Cc1ccc(NS(=O)(=O)O)cc1)c1csc(-c2cccs2)n1 .
Resp: 2.41

----------
# PROCEDURE DETAILS: Ocular tissue concentrations (aqueous humor, vitreous humor, iris, retina, choroid, cornea) after topical ocular, subcutaneous and intravitreal administration
# Type: in vivo, New Zealand White rabbits
# CONDITION SET: New Zealand White, rabbit, iris homogenate, other: intravitreal, 2.5 mg/eye, Iris homogenate, 72 hr, OD; sodium salt, intravitreal 2.5 mg/eye, Group 4; read-out: Iris Conc. (ng/mL) OD
MEASUREMENT NAME: concentration at 72 h (ng/mL)
Give your result in ng/mL as a bare value.

Req: In one line, give reported concentration at 72 h of the entry COC(=O)N[C@@H](Cc1ccccc1)C(=O)N[C@@H](Cc1ccc(NS(=O)(=O)O)cc1)c1csc(-c2cccs2)n1 [Compound 1] .
Resp: 169

----------
# PROCEDURE DETAILS: Ocular tissue concentrations (aqueous humor, vitreous humor, iris, retina, choroid, cornea) after topical ocular, subcutaneous and intravitreal administration
# Type: in vivo, New Zealand White rabbits
# CONDITION SET: New Zealand White, rabbit, choroid, topical, 1.2 mg/eye, topical ocular 1.2 mg/eye (~0.7 mg/kg/dose); 1 hr; read-out: Choroid tissue Average
Where a name gives a salt, the structure may show the parent alone.
MEASUREMENT NAME: concentration at 1 hr (ng/g)
Give your result in ng/g as a bare value.

Req: In one line, give reported concentration at 1 hr of the entry COC(=O)N[C@@H](Cc1ccccc1)C(=O)N[C@@H](Cc1ccc(NS(=O)(=O)O)cc1)c1csc(-c2cccs2)n1 [Compound 1 sodium salt] .
Resp: 32.2

----------
# PROCEDURE DETAILS: Ocular tissue concentrations (aqueous humor, vitreous humor, iris, retina, choroid, cornea) after topical ocular, subcutaneous and intravitreal administration
# Format: in vivo, New Zealand White rabbits
# CONDITION SET: New Zealand White, rabbit, cornea, other: intravitreal, 2.5 mg/eye, Cornea, 24 hr; sodium salt, intravitreal 2.5 mg/eye, Group 4; read-out: Cornea Avg.
MEASUREMENT NAME: concentration at 24 hr (ng/g)
Give your result in ng/g as a bare value.

Req: In one line, give reported concentration at 24 hr of the entry COC(=O)N[C@@H](Cc1ccccc1)C(=O)N[C@@H](Cc1ccc(NS(=O)(=O)O)cc1)c1csc(-c2cccs2)n1 .
Resp: 23700

----------
# PROCEDURE DETAILS: Ocular tissue concentrations (aqueous humor, vitreous humor, iris, retina, choroid, cornea) after topical ocular, subcutaneous and intravitreal administration
# Assay type: in vivo, New Zealand White rabbits
# CONDITION SET: New Zealand White, rabbit, iris homogenate, subcutaneous, 5 mg/kg/dose, Iris homogenate, 2 hr, OS; free acid, subcutaneous 5 mg/kg/dose, Group 3; read-out: Iris Conc. (ng/mL) OS
MEASUREMENT NAME: concentration at 2 h (ng/mL)
Give your result in ng/mL as a bare value.

Req: In one line, give reported concentration at 2 h of the entry COC(=O)N[C@@H](Cc1ccccc1)C(=O)N[C@@H](Cc1ccc(NS(=O)(=O)O)cc1)c1csc(-c2cccs2)n1 .
Resp: 2.68

----------
# PROCEDURE DETAILS: Ocular tissue concentrations (aqueous humor, vitreous humor, iris, retina, choroid, cornea) after topical ocular, subcutaneous and intravitreal administration
# Assay type: in vivo, New Zealand White rabbits
# CONDITION SET: New Zealand White, rabbit, retina, subcutaneous, 5 mg/kg/dose, TABLE 16: Retina, 4 hr; free acid, subcutaneous 5 mg/kg/dose, Group 3; read-out: Retina Average
MEASUREMENT NAME: concentration at 4 h (ng/g)
Give your result in ng/g as a bare value.

Req: In one line, give reported concentration at 4 h of the entry COC(=O)N[C@@H](Cc1ccccc1)C(=O)N[C@@H](Cc1ccc(NS(=O)(=O)O)cc1)c1csc(-c2cccs2)n1 [Compound 1] .
Resp: 35.3

----------
# PROCEDURE DETAILS: Ocular tissue concentrations (aqueous humor, vitreous humor, iris, retina, choroid, cornea) after topical ocular, subcutaneous and intravitreal administration
# Format: in vivo, New Zealand White rabbits
# CONDITION SET: New Zealand White, rabbit, vitreous humor, other: intravitreal, 2.5 mg per eye, Group 4 intravitreal 2.5 mg per eye; 6.0 hr; read-out: vitreous humor Average Conc.
# Experimental: To measure the concentration of Compound 1 in plasma and ocular tissues following topical ocular, subcutaneous, and intravitreal administration, New Zealand White rabbits were administered Compound 1, and plasma and ocular samples were collected at pre-determined time points. […] Ocular tissue samples from both eyes of each animal were collected and weights were recorded. Plasma and ocular tissue sample concentrations of Compound 1 were determined by LC-MS/MS. […]
Where a name gives a salt, the structure may show the parent alone.
MEASUREMENT NAME: concentration at 6 hr (ng/g)
Give your result in ng/g as a bare value.

Req: In one line, give reported concentration at 6 hr of the entry COC(=O)N[C@@H](Cc1ccccc1)C(=O)N[C@@H](Cc1ccc(NS(=O)(=O)O)cc1)c1csc(-c2cccs2)n1 [Compound 1 sodium salt] .
Resp: 988000

----------
# PROCEDURE DETAILS: Plasma concentrations and pharmacokinetic parameters after topical ocular, subcutaneous and intravitreal administration
# Type: in vivo, New Zealand White rabbits
# CONDITION SET: New Zealand White, rabbit, plasma, other: intravitreal, 2.5 mg/eye, intravitreal 2.5 mg/eye (~1.54 mg/kg), suspension; 1.0 hr; read-out: plasma Average
MEASUREMENT NAME: concentration at 1 h (ng/mL)
Give your result in ng/mL as a bare value.

Req: In one line, give reported concentration at 1 h of the entry COC(=O)N[C@@H](Cc1ccccc1)C(=O)N[C@@H](Cc1ccc(NS(=O)(=O)O)cc1)c1csc(-c2cccs2)n1 [Compound 1 free acid] .
Resp: 25.3
